System: SK-MEL-5 melanoma
PROCEDURE_DETAILS: NCI tumour cell line growth inhibition, 48 h
Consider the following molecules and their measured TGI readings.
Write the value in µM as a bare number.

Example entries and their recorded answers appear below.
# MOLECULE, ASSAY_METRIC, NUMERIC_RESULT
measured = [
    ("O=C(/C=C/c1ccc(Oc2cc(C(=O)/C=C/c3ccc(O)cc3)c(O)cc2O)cc1)c1ccc(O)cc1O", "TGI", 17.1),
    ("O=C1C(Cl)C2(CC(/C=C/c3ccccc3)=NN2c2cccc(S(=O)(=O)O)c2)N1c1nc2ccccc2s1 (stereo unspecified)", "TGI", 30.2),
    ("O=C(CCCCCCN1CC(=O)N2[C@@H](c3ccc(Cl)c(Cl)c3)c3[nH]c4ccccc4c3C[C@H]2C1=O)NO", "TGI", 9.29),
    ("C=C1CCC2[C@@H](CCC3[C@]2(C)CCC[C@]3(C)C(=O)OC)C1CC=O (stereo partly specified)", "TGI", 33.9),
    ("c1ccc(-c2nc(N3CCNCC3)c3oc(-c4ccccc4)nc3n2)cc1", "TGI", 3.2),
    ("CCOC(=O)c1c(C)n(-c2ccc(Cl)cc2)c2c1cc(O)c1[nH]c3c(c12)CCCC3", "TGI", 49.4),
]

Using the record for `O=[N+]([O-])c1ccc(N2CCOCC2)c2c1no[n+]2[O-]` , report its TGI.
3.34
